Assay: self-splicing fitness, log relative to wild type (ln ratio); higher = more splicing; Tetrahymena group I intron in knt gene, E. coli kanamycin selection, DiMSum; sequences stand for … in CUCUCU…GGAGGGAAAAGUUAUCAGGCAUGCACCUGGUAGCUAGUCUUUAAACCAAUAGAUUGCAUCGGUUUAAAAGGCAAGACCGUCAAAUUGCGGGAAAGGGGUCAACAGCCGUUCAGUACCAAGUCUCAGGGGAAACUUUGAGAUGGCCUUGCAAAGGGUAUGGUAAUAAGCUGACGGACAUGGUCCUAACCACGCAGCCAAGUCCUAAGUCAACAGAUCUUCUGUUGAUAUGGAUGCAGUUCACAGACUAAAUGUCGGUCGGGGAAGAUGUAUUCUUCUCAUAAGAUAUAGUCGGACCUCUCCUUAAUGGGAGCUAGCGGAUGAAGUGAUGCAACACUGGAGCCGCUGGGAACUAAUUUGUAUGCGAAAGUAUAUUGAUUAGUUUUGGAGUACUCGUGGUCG;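 note: selection with 25 µg/mL kanamycin versus none on LB agar overnight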
Conditions: 37 °C
Listing of entries alongside the reported self-splicing fitness (ln).

These solved cases illustrate the format of a correct answer.
> print(dat)
          sequence.code  reported
1  AAUAAGCAAUAUUACGCAUC     -1.66
2  UUCUAGCAAUAUUACGUAGU      -1.6
3  UACAAGCAAUAUUACGUACA     -0.15
4  GCUCAGCAAUAUUACGCCUG     -2.42
5  CCGUAGCAAUAUUACGCUGC     -1.49

INPUT: State its self-splicing fitness (ln): GGAUAGCAAUAUUACGCCAG
OUTPUT: -0.526

INPUT: Recall and state the measured self-splicing fitness (ln) for CACUAGCAAUAUUACGGCAA .
OUTPUT: -2.08

* * *

Assay: self-splicing fitness, log relative to wild type (ln ratio); higher = more splicing; Tetrahymena group I intron in knt gene, E. coli kanamycin selection, DiMSum; sequences stand for … in CUCUCU…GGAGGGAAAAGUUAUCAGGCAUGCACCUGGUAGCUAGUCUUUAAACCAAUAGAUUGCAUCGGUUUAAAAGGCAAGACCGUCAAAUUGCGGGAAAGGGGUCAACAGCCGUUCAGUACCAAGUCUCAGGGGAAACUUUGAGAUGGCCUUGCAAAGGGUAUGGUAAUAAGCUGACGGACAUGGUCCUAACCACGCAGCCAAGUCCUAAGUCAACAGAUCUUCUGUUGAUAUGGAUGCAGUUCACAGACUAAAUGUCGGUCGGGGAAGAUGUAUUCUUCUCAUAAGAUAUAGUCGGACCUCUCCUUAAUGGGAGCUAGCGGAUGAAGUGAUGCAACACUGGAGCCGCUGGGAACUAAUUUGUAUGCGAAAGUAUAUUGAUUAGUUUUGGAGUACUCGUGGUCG
Conditions: 30 °C
readout: self-splicing fitness (ln)
Reply briefly: the number, and no unit.

> print(dat)
          sequence.code                     readout  reported
1  UGGAAGCAAUAUUACGAGUA  self-splicing fitness (ln)     -1.94

INPUT: Tell us which self-splicing fitness (ln) value is on record for GCCAAGCAAUAUUACGGGGC
OUTPUT: -3.69

INPUT: Return value of self-splicing fitness (ln) for input UCUAAGCAAUAUUACGACCU , no commentary.
OUTPUT: -3.7

INPUT: Consider the sequence UCAAAGCAAUAUUACGCUUG and give its recorded self-splicing fitness (ln).
OUTPUT: -2.27

INPUT: Could you please provide reported self-splicing fitness (ln) for UUUAAGCAAUAUUACGUCUA ? Thanks!
OUTPUT: -0.606

INPUT: Dear colleague, please send me the reported self-splicing fitness (ln) for AGAGAGCAAUAUUACGAAAU when you can.
OUTPUT: -3.71

INPUT: Tell us which self-splicing fitness (ln) value is on record for AAGAAGCAAUAUUACGCAUG
OUTPUT: -1.63

Values from the supplement of paper PMC7877785
